This collection of values is drawn from the supplement of paper PMC3334620.

ASSAY_SYSTEM: Yap3 (UniProt P38749)
Sequence: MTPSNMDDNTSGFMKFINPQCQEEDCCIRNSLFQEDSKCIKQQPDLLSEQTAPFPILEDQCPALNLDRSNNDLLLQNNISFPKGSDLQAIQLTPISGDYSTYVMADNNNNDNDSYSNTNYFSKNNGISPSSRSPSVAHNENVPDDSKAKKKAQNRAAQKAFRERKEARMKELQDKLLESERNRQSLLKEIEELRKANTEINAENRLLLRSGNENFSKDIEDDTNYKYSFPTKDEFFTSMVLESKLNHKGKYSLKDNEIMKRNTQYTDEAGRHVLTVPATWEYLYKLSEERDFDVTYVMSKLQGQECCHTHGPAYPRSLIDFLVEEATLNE
METHOD_SUMMARY: PBM E-score (8-mer binding enrichment) (E-score (-0.5 to 0.5)); higher = stronger / more preferred TF binding
CONDITION_SET: protein concentration: 100 nM; construct: GST-full length
In all, about 33,000 sequences were measured (“E-score (-0.5 to 0.5)”: median about -0.0034, highest 2% from about 0.25 on). Shown is part of a subset that was picked to be rich in the highest values.
PROPERTY_LABEL: PBM E-score
Form rule: numeric answer, no unit written next to it.

Input: Quick check: PBM E-score of `AAATAAGT` ?
Output: 0.145

Input: For `AGATCGCG` , what is its reported PBM E-score?
Output: 0.0544

Input: Query: PBM E-score; subject: `GAATAACA`
Output: 0.308

Input: Need PBM E-score of `CTTTATAC` , thanks.
Output: 0.114

Input: Tell me the measured PBM E-score of `ACATTACA` , please.
Output: 0.131
